These measurements were taken from the supplement of paper PMC10567573.

B1: ADD1 (parent)
chain: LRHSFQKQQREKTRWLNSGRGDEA

Variants of: B1
protocol.text: protein stability index of a GFP-peptide fusion (GPS, HEK-293T) (PSI 1-6); higher = more stable;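 further: lentivirally expressed fusions sorted by FACS into six bins by GFP to DsRed ratio, PSI derived from sequencing read proportions per bin multiplied by bin number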
test.context: c terminus: a fixed tail appended
Entries and their protein stability index values follow.

{"variant.label": "Q8C", "protein stability index": 2.62}
{"variant.label": "G21T", "protein stability index": 3.33}
{"variant.label": "S4M", "protein stability index": 2.84}
{"variant.label": "K12D", "protein stability index": 3.96}
{"variant.label": "R20G", "protein stability index": 3.71}
{"variant.label": "S18A", "protein stability index": 4.02}
